Catalogue of selectivity ratio values
Experiment: Selectivity index, ratio of CC50 for human HepG2.215 cells to IC50 for Hepatitis B virus infected in human HepG2.215 cells assessed as inhibition of HBsAg secretion
Assay type: toxicity, cell-based
Conditions: HepG2.2.15 cells (Hepatitis B virus infected), read-out: Ratio CC50/IC50
Output spec: single numeric token, no unit.

CC1(C)CC[C@]2(C(=O)O)CC[C@]3(C)C(=CC[C@@H]4[C@@]5(C)CC[C@H](O)C(C)(C)[C@@H]5CC[C@]43C)[C@@H]2C1 [OLEANOLIC_ACID] :: 0.53
C[C@H]1C(=O)CC[C@@H]2[C@]1(C)CC[C@H]1[C@@]2(C)CC[C@@]2(C)[C@@H]3CC(C)(C)CC[C@]3(C)CC[C@]12C [FRIEDELINE] :: 1.48
CC1(C)CC[C@@]23CC[C@]4(C)[C@@](OC2=O)([C@@H]3C1)[C@@H](O)C[C@@H]1[C@@](C)(CCC(=O)O)[C@H](C(C)(C)O)CC[C@]14C :: 1.32
CC1(C)CC[C@]2(C(=O)O)CC[C@]3(C)C(=CC(=O)[C@@H]4[C@@]5(C)CCC(=O)OC(C)(C)[C@@H]5CC[C@]43C)[C@@H]2C1 :: 1.81
CC1(C)[C@@H](O)CC[C@]2(C)[C@H]3C(=O)C=C4[C@@H]5C[C@@](C)(C(=O)O)CC[C@]5(C)CC[C@@]4(C)[C@]3(C)CC[C@@H]12 [ENOXOLONE] :: 1.27

In the following, a different molecule is considered.
Exercise: Tell me the measured selectivity ratio of "CC1(C)CC[C@@]23CC[C@]4(C)[C@@](OC2=O)([C@@H]3C1)[C@@H](O)C[C@@H]1[C@@]2(C)CCC(=O)OC(C)(C)[C@@H]2CC[C@]14C" , please.
Solution: 1.57

---

Experiment: Cytotoxicity against human HepG2.215 cells assessed as reduction in cell viability after 3 days by MTT assay
Type: cell-based, HepG2 2.2.15
Details: HepG2.2.15 cells
assay readout: CC50 at 72 h (µM)
Return type: number; implicit unit µM.

CC1(C)CC[C@]2(C(=O)O)CC[C@]3(C)C(=CC[C@@H]4[C@@]5(C)CC[C@H](O)C(C)(C)[C@@H]5CC[C@]43C)[C@@H]2C1 [OLEANOLIC_ACID] :: 731
C[C@H]1[C@H](C)CC[C@]2(C(=O)O)CC[C@]3(C)C(=CC[C@@H]4[C@@](C)(CCC(=O)O)[C@H](C(C)(C)O)CC[C@]43C)[C@H]12 :: 461
CC1(C)CC[C@@]23CC[C@]4(C)[C@@](OC2=O)([C@@H]3C1)[C@@H](O)C[C@@H]1[C@@]2(C)CCC(=O)OC(C)(C)[C@@H]2CC[C@]14C :: 540

Next, consider the following compound.
Exercise: I'd like to know its CC50 at 72 h. The compound in question is C[C@H]1OC(=O)CC[C@@H]2[C@]1(C)CC[C@H]1[C@@]2(C)CC[C@@]2(C)[C@@H]3CC(C)(C)CC[C@]3(C)CC[C@]12C [FRIEDELIN-3,4-LACTONE]
Solution: 482

---

Listed here: items and their measured selectivity ratio.
Experiment: Selectivity index, ratio of CC50 for human HepG2.215 cells to IC50 for Hepatitis B virus infected in human HepG2.215 cells assessed as inhibition of HBeAg secretion
Type: toxicity, cell-based
Settings: HepG2.2.15 cells (Hepatitis B virus infected), read-out: Ratio CC50/IC50
Please give only the number in your answer, with no unit.

# count of solved cases: 3
CC1(C)CC[C@]2(C(=O)O)CC[C@]3(C)C(Br)(CC[C@@H]4[C@@]5(C)CCC(=O)OC(C)(C)[C@@H]5CC[C@]43C)[C@@H]2C1 (stereo partly specified) :: 5.21
C[C@H]1OC(=O)CC[C@@H]2[C@]1(C)CC[C@H]1[C@@]2(C)CC[C@@]2(C)[C@@H]3CC(C)(C)CC[C@]3(C)CC[C@]12C :: 0.61
CC1(C)CC[C@@]23CC[C@]4(C)[C@@](OC2=O)([C@@H]3C1)[C@@H](O)C[C@@H]1[C@@]2(C)CCC(=O)OC(C)(C)[C@@H]2CC[C@]14C :: 3.03

Consider the additional molecule presented here.
Exercise: Fill blank: measured selectivity ratio of the molecule "C[C@H]1C(=O)CC[C@@H]2[C@]1(C)CC[C@H]1[C@@]2(C)CC[C@@]2(C)[C@@H]3CC(C)(C)CC[C@]3(C)CC[C@]12C" is ____.
Solution: 1.43

---

Below, each entry is listed alongside its reported selectivity ratio.
Assay: Selectivity index, ratio of CC50 for human HepG2.215 cells to IC50 for Hepatitis B virus infected in human HepG2.215 cells assessed as inhibition of HBsAg secretion
Assay type: toxicity, cell-based
Conditions: HepG2.2.15 cells (Hepatitis B virus infected), read-out: Ratio CC50/IC50
// no unit, no text: just the number

Example cases with answers are listed next.
CC1(C)CC[C@]2(C(=O)O)CC[C@]3(C)C(Br)(CC[C@@H]4[C@@]5(C)CCC(=O)C(C)(C)[C@@H]5CC[C@]43C)[C@@H]2C1 (stereo partly drawn) :: 0.11
C[C@H]1[C@H](C)CC[C@]2(C(=O)O)CC[C@]3(C)C(=CC[C@@H]4[C@@]5(C)CCC(=O)OC(C)(C)[C@@H]5CC[C@]43C)[C@H]12 :: 1.43

Next:
Exercise: Please give the measured selectivity ratio for this compound: "C[C@H]1OC(=O)CC[C@@H]2[C@]1(C)CC[C@H]1[C@@]2(C)CC[C@@]2(C)[C@@H]3CC(C)(C)CC[C@]3(C)CC[C@]12C"
Solution: 0.63

---

Assay: Selectivity index, ratio of CC50 for human HepG2.215 cells to IC50 for Hepatitis B virus infected in human HepG2.215 cells assessed as inhibition of HBeAg secretion
Assay type: toxicity, cell-based
Conditions: HepG2.2.15 cells (Hepatitis B virus infected), read-out: Ratio CC50/IC50
assay readout: selectivity ratio
Could you keep your reply to the number by itself?

CC1(C)CC[C@]2(C(=O)O)CC[C@]3(C)C(Br)(CC[C@@H]4[C@@]5(C)CCC(=O)C(C)(C)[C@@H]5CC[C@]43C)[C@@H]2C1 (stereo partly drawn) :: 0.1
CC1(C)OC(=O)CC[C@]2(C)[C@H]3C(=O)C=C4[C@@H]5C[C@@](C)(C(=O)O)CC[C@]5(C)CC[C@@]4(C)[C@]3(C)CC[C@@H]12 :: 6.67

Exercise: Entry C[C@H]1[C@H](C)CC[C@]2(C(=O)O)CC[C@]3(C)C(=CC[C@@H]4[C@@]5(C)CC[C@H](O)C(C)(C)[C@@H]5CC[C@]43C)[C@H]12 [URSOLIC ACID] has what selectivity ratio?
Solution: 1.72

---

// values below are reported selectivity ratio
Assay: Selectivity index, ratio of CC50 for human HepG2.215 cells to IC50 for Hepatitis B virus infected in human HepG2.215 cells assessed as inhibition of HBeAg secretion
Format: toxicity, cell-based
Conditions: HepG2.2.15 cells (Hepatitis B virus infected), read-out: Ratio CC50/IC50
Note: the reply should be a number with no unit written.

Check out these entries, answers already filled in.
CC(C)(O)[C@@H]1CC[C@]2(C)[C@H](C(=O)C=C3[C@@H]4C[C@@](C)(C(=O)O)CC[C@]4(C)CC[C@]32C)[C@@]1(C)CCC(=O)O :: 7.95
C[C@H]1[C@H](C)CC[C@]2(C(=O)O)CC[C@]3(C)C(=CC[C@@H]4[C@@](C)(CCC(=O)O)[C@H](C(C)(C)O)CC[C@]43C)[C@H]12 :: 1.2

Note: attention shifts to another entry.
Exercise: Given the compound "CC1(C)CC[C@]2(C(=O)O)CC[C@]3(C)C(=CC[C@@H]4[C@@]5(C)CC[C@H](O)C(C)(C)[C@@H]5CC[C@]43C)[C@@H]2C1" , what is its reported selectivity ratio?
Solution: 0.9

---

Experiment: Selectivity index, ratio of CC50 for human HepG2.215 cells to IC50 for Hepatitis B virus infected in human HepG2.215 cells assessed as inhibition of HBeAg secretion
Type: toxicity, cell-based
Conditions: HepG2.2.15 cells (Hepatitis B virus infected), read-out: Ratio CC50/IC50
Measured selectivity ratio of individual entries
Number only, no unit.

// solved cases for selectivity ratio follow
C[C@H]1[C@H](C)CC[C@]2(C(=O)O)CC[C@]3(C)C(=CC[C@@H]4[C@@]5(C)CCC(=O)OC(C)(C)[C@@H]5CC[C@]43C)[C@H]12 :: 2.3
CC1(C)[C@@H](O)CC[C@]2(C)[C@H]3C(=O)C=C4[C@@H]5C[C@@](C)(C(=O)O)CC[C@]5(C)CC[C@@]4(C)[C@]3(C)CC[C@@H]12 :: 0.81

Switching to the query record.
Exercise: Tell me the measured selectivity ratio of "CC1(C)CC[C@@]23CC[C@]4(C)[C@@](OC2=O)([C@@H]3C1)[C@@H](O)C[C@@H]1[C@@](C)(CCC(=O)O)[C@H](C(C)(C)O)CC[C@]14C" , please.
Solution: 4.04
